- Test system: HEK-293T
- assay-info: Multiplex assay against HEK293T
- Format: toxicity, cell-based
- test-parameters: human, 12 h, 1 µM, compound concentration 1 uM, replicate 1
readout-type: Population Mitotic Cells (%)

INSERT INTO measurements (compound, result_number) VALUES
  ('CCOC(=O)CCNc1cc(N2CCc3ccccc3CC2)nc(-c2ccccn2)n1', 84),
  ('Cc1c(P(=S)(c2ccccc2)c2ccccc2)n2ccccc2[n+]1C/C=C/c1ccccc1.[Br-]', 34),
  ('CN(c1cc(C(F)(F)F)nc(OCCC(=O)O)n1)c1cccc2c1CCC2', 55),
  ('C[C@@H](Oc1cc(-n2cnc3ccc(CN4CCN(C)CC4)cc32)sc1C(N)=O)c1ccccc1C(F)(F)F', 37),
  ('Cc1c(Nc2ccc(S(=O)(=O)N3CCN(C)CC3)cc2F)nc2ccc(Nc3cnn(C4CC4)c3)cn2c1=O', 82),
  ('CC(/C=C1\SC(=S)N(CCCC(=O)Nc2ccc(C(=O)O)c(O)c2)C1=O)=C\c1ccccc1', 61),
  ('Cl.Cn1c2c(c3ccc(Cl)c(Cl)c31)C(C#N)C1(CCNCC1)NC2=O (configuration not stated)', 82),
  ('CCOc1ccn(-c2ccc(F)cc2)c(=O)c1C(=O)Nc1ccc(Oc2ccnc(N)c2Cl)c(F)c1', 75),
  ('CC[C@@H]1C(=O)N(C)c2cnc(Nc3ccc(C(=O)NC4CCN(C)CC4)cc3OC)nc2N1C1CCCC1', 84),
  ('Cc1ccc(NC(=O)Nc2cc(C(F)(F)F)ccc2F)cc1Nc1ccc2c(c1)NC(=O)/C2=C\c1ccc[nH]1', 86),
  ('N#Cc1cccc(C(=O)Nc2cc(-c3ccccc3)nn2-c2ccccc2)c1', 51),
  ('Cc1ccc(S(=O)(=O)NC2c3ccccc3Oc3ccccc32)cc1', 53),
  ('CC(Cc1ccc(O)c(O)c1)C(C)Cc1ccc(O)c(O)c1 (configuration not stated) [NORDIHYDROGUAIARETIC ACID]', 57),
  ('CN1C(=O)[C@@H](NC(=O)c2cc3ccccc3[nH]2)N=C(c2ccccc2)c2ccccc21 [DEVAZEPIDE]', 50),
  ('CCCc1cc(C)[nH]c(=O)c1CNC(=O)c1cc(-c2ccc(N3CCN(C(C)C)CC3)nc2)cc2c1cnn2C(C)C', 36),
  ('NC(=O)c1ccc2nc(-c3ccc(C4(N)CCC4)cc3)c(-c3ccccc3)n2n1', 77);
